# Tested on: rat liver mitochondria (RLM)
# protocol-text: Mitochondrial transmembrane electric potential (ΔΨ) of RLM, safranine fluorescence
# Format: biochemical
# assay-setup: succinate; 10 μM
// label = true (1) if Lag Phase is not less than 60 s, otherwise false (0)

Query block: Decide: Lag Phase of CS(=O)(=O)[O-].O=C(/C=C/c1cc(O)c(O)c(O)c1)NCCCCCC[P+](c1ccccc1)(c1ccccc1)c1ccccc1 [AntiOxCIN4] >= 60 s?
Result block: true (1)

Query block: Decide: Lag Phase of CS(=O)(=O)[O-].O=C(/C=C/c1ccc(O)c(O)c1)NCCCCCCCCCC[P+](c1ccccc1)(c1ccccc1)c1ccccc1 [AntiOxCIN6] >= 60 s?
Result block: true (1)

Query block: Decide: Lag Phase of CS(=O)(=O)[O-].O=C(/C=C/c1cc(O)c(O)c(O)c1)NCCCCCCCCCC[P+](c1ccccc1)(c1ccccc1)c1ccccc1 [AntiOxCIN7] >= 60 s?
Result block: true (1)

Query block: Decide: Lag Phase of CS(=O)(=O)[O-].O=C(/C=C/c1ccc(O)c(O)c1)NCCCCCC[P+](c1ccccc1)(c1ccccc1)c1ccccc1 [AntiOxCIN2] >= 60 s?
Result block: false (0)

Query block: Decide: Lag Phase of CS(=O)(=O)[O-].O=C(/C=C/c1ccc(O)c(O)c1)NCCCCCCCC[P+](c1ccccc1)(c1ccccc1)c1ccccc1 [AntiOxCIN3] >= 60 s?
Result block: true (1)
